Known Color density of a selection of compounds
Assay: Developed color of polymer plate under xenon light (color density, maximum absorption wavelength)
Assay type: physicochemical
Settings: 0.04 parts in polymer plate

[
  {
    "compound": "CCC1=C2C(=O)N(S(=O)(=O)O)C(=O)C2C2(c3c(OC)cc(OC)cc31)C1CC3CC(C1)CC2C3 (stereo not drawn)",
    "Color density": 0.68
  },
  {
    "compound": "CC1=C2C(=O)N(CC#N)C(=O)C2C2(c3sc(-c4ccccc4)cc31)C1CC3CC(C1)CC2C3 (stereo not drawn) [D, reference compound]",
    "Color density": 0.82
  },
  {
    "compound": "CCN1C(=O)C2=C(C)c3ccsc3C3(C4CC5CC(C4)CC3C5)C2C1=O (stereo not drawn) [A, reference compound]",
    "Color density": 0.68
  }
]
